# credit: patent US7091185B2

- Test system: Cr. Neoformans 32045
- Type: cell-based
Where no end group is shown, it is not given here.
Record form. Attribute: MIC. Fill in for each entry.

GET /value?item= LKKLLKKLLKKLLKKLLKKLLKKLLKKLLKKL [LKKL (8), LKKL LKKL LKKL LKKL LKKL LKKL LKKL LKKL] &field=MIC returns 62 to 125 µg/mL

GET /value?item= H-FAKKFAKKFAKKFAKKFAKKFAKK-OH [FAKK (6), FAKK FAKK FAKK FAKK FAKK FAKK] &field=MIC returns 16 to 32 µg/mL

GET /value?item= H-KFAKKFAKKFAKKFAKKFAKKFAK-OH [KFAK (6), KFAK KFAK KFAK KFAK KFAK KFAK] &field=MIC returns 16 to 32 µg/mL

GET /value?item= LRLRLRLRLRLRLR [LR (7), LR LR LR LR LR LR LR] &field=MIC returns 4 to 8 µg/mL

GET /value?item= LKKLLKKLLKKLLKKLLKKLLKKL [LKKL (6), LKKL LKKL LKKL LKKL LKKL LKKL] &field=MIC returns >125 µg/mL

GET /value?item= H-FKAFKAFKAFKAFKAFKAFKAFKAFKAFKA-OH [FKA (10), FKA FKA FKA FKA FKA FKA FKA FKA FKA FKA] &field=MIC returns 32 to 62 µg/mL

GET /value?item= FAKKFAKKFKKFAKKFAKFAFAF [D2A21, reference compound] &field=MIC returns 62 to 125 µg/mL

GET /value?item= KFAFKFAFKFAFKFAFKFAFKFAFKFAF [KFAF (7), KFAF KFAF KFAF KFAF KFAF KFAF KFAF] &field=MIC returns 125 to 250 µg/mL

* * *

- Tested on: Cr. Neoformans 32045
- Assay type: cell-based
Where no end group is shown, it is not given here.
parameterMeasured: MIC

GET /value?item= H-LKKLLKKLLKKLLKKLLKKLLKKLLKKL-OH [LKKL (7), LKKL LKKL LKKL LKKL LKKL LKKL LKKL] &field=MIC returns 100 to 125 µg/mL

GET /value?item= LKLKLKLKLKLKLKLKLK [LK (9), LK LK LK LK LK LK LK LK LK] &field=MIC returns 32 to 62 µg/mL

GET /value?item= H-RFARRFARRFARRFARRFARRFAR-OH [RFAR (6), RFAR RFAR RFAR RFAR RFAR RFAR] &field=MIC returns 62 to 125 µg/mL

GET /value?item= KFAKKFAKKFAKKFAKKFAKKFAKKFAK [KFAK (7), KFAK KFAK KFAK KFAK KFAK KFAK KFAK] &field=MIC returns 32 to 62 µg/mL

GET /value?item= H-KFAKKFAKKFAKKFAKKFAKKFAKKFAKKFAK-OH [KFAK (8), KFAK KFAK KFAK KFAK KFAK KFAK KFAK KFAK] &field=MIC returns 8 to 16 µg/mL

GET /value?item= LRLRLRLRLRLRLRLRLRLRLR [LR (11), LR LR LR LR LR LR LR LR LR LR LR] &field=MIC returns 62 to 125 µg/mL

GET /value?item= FKLRAKIKVRLRAKIKL [D4E1, FKLRAKIKVRLRAKIKL, reference compound] &field=MIC returns 8 to 16 µg/mL

GET /value?item= FKAFKAFKAFKAFKAFKA [FKA (6), FKA FKA FKA FKA FKA FKA] &field=MIC returns 4 to 8 µg/mL
